# System: DX20 cancer cells
# method description: modified MTT assay, drug sensitivity of DX20 cells
# Assay type: cell-based, human
# assay setup: Homo sapiens, DX20 cells; d-tetrandrine 2 × 10^−7 molar; read-out: IC50 doxorubicin in d-tetrandrine
measured property: IC50 (nM)

>>> value_measured("COc1cccc2c1C(=O)c1c(O)c3c(c(O)c1C2=O)C[C@@](O)(C(=O)CO)C[C@@H]3O[C@H]1C[C@H](N)[C@H](O)[C@H](C)O1")
660

* * *

# Test system: DX20 cancer cells
# method description: modified MTT assay, drug sensitivity of DX20 cells
# Format: cell-based, human
# assay setup: Homo sapiens, DX20 cells; ethyl fangchinoline 2 × 10^−7 molar; read-out: IC50 doxorubicin in ethyl fangchinoline
measured property: IC50 (nM)

>>> value_measured("COc1cccc2c1C(=O)c1c(O)c3c(c(O)c1C2=O)C[C@@](O)(C(=O)CO)C[C@@H]3O[C@H]1C[C@H](N)[C@H](O)[C@H](C)O1")
470
